Tested on: human oral squamous carcinoma A253 cells
Assay: CCK-8 antiproliferative assay, A253
Assay type: cell-based
Conditions: Homo sapiens, A253; CCK-8, 72 h, mean ± SD; read-out: IC50 (μM) A253
Answer each item with its documented IC50.

Worked cases, IC50 given:
COc1cc([C@@H]2c3cc4c(cc3[C@@H](O[C@@H]3O[C@@H]5CO[C@@H](C)O[C@H]5[C@H](O)[C@H]3O)[C@H]3COC(=O)[C@H]23)OCO4)cc(OC)c1O [Etoposide, etoposide] :: 0.95 µM
Cc1cc(=O)oc2cc(O)ccc12 [compound 7, 4-methylumbelliferone] :: > 100 µM

Now let's try a different one.
Ask | State its IC50 on human oral squamous carcinoma A253 cells: O=c1ccc2ccc(O)cc2o1 [compound 8, 7-hydroxycoumarin]
Reply | > 100 µM

* * *

Test system: human oral squamous carcinoma A253 cells
Assay: CCK-8 antiproliferative assay, A253
Assay type: cell-based
Conditions: CCK-8, 72 h, mean ± SD; read-out: IC50 (μM) A253
Answer each item with its documented IC50.
Give bare numbers, in µM.

N.N.[Cl][Pt][Cl] [Cisplatin, cisplatin] :: 1.62

Now let's try a different one.
Ask | So what's the measured IC50 for this one? `O=c1[nH]cc(F)c(=O)[nH]1`
Reply | 5.52
